Where these numbers come from: patent US4996217A

# Target Or System: H+/K+ ATPase (Sus scrofa, UniProt P19156)
# Construct: prepared from the porcine gastric mucosa
# Sequence (P19156 2-1034 limits assumed): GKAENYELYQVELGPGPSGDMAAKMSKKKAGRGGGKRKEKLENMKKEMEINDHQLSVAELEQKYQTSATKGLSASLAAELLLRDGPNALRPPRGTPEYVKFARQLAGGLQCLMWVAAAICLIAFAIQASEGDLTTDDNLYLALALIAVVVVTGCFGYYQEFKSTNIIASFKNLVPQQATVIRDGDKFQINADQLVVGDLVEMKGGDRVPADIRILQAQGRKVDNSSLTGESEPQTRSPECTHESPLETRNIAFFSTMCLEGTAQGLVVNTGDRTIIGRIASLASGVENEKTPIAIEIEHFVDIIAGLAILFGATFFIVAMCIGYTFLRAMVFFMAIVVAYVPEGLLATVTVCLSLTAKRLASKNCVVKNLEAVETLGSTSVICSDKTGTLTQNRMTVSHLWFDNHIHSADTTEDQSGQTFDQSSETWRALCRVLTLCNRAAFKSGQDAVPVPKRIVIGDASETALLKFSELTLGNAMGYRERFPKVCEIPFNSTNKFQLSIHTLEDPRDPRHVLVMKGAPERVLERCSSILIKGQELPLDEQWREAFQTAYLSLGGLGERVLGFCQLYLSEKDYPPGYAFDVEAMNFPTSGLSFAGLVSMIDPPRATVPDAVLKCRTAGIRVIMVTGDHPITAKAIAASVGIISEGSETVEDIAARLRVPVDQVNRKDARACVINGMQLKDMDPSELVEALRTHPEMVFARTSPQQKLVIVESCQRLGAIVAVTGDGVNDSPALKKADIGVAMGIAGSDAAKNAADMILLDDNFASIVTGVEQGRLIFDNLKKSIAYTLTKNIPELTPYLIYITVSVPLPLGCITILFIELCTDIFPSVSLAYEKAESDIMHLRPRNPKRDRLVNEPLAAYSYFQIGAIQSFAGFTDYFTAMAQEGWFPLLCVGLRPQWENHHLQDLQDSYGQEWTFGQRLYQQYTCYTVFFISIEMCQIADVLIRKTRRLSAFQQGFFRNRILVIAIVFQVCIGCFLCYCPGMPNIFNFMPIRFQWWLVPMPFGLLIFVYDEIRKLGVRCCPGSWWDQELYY
# Sequence (P18434 whole entry partner): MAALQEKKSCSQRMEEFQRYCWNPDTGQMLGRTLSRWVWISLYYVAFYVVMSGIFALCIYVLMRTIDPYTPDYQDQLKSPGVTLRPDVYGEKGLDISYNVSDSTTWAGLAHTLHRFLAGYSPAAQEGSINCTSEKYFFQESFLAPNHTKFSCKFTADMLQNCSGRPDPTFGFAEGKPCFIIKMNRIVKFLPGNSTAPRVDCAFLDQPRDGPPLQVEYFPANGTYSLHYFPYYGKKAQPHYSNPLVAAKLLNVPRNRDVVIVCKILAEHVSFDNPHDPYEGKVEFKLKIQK
# Assay Notes: effect on the enzyme activity of H+/K+ ATPase prepared from porcine gastric mucosa
# Condition Details: read-out: IC50 (concentration required to induce 50% inhibition of H+/K+ ATPase enzymatic activity)
pIC50: −log10 of the molar value.
Measurement Name: pIC50

Which pIC50 value is on record for [O-][S+](Cc1ccccc1NC1CCCCC1)c1nccn1-c1ccccn1 (stereo not drawn) ?
> 5.00

Which pIC50 value is on record for CCN(CC)c1ccccc1C[S+]([O-])c1nc2c(n1-c1ccccn1)CCC2 (stereo not drawn) ?
~5.00

Which pIC50 value is on record for CCN(CC)c1ccccc1C[S+]([O-])c1nccn1-c1cc(OC)cc(C)n1 (stereo not drawn) ?
> 5.00
